Target of assay: Sigma non-opioid intracellular receptor 1 (Cavia porcellus, UniProt Q60492)
Sequence (Q60492 whole entry): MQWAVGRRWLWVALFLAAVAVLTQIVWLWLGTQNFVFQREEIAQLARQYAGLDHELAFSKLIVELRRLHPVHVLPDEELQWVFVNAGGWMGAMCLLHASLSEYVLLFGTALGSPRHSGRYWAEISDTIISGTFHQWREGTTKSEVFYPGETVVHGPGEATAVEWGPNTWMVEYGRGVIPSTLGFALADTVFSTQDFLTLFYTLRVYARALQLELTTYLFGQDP
Protocol notes: Displacement of [3H](+)-pentazocine from sigma-1 receptor in guinea pig brain cortex after 120 mins by scintillation counting analysis
The label is condition met for Ki below 90 nM and condition not met for Ki equal to or exceeding 90 nM.

- Compound: "COc1ccc2cc(C3(O)CCN(C)C3C)ccc2c1 (configuration not stated)"
  Assigned label: "condition not met"
- Compound: "C[C@H]1N(C)CC[C@]1(O)c1ccc2ccccc2c1"
  Assigned label: "condition met"
- Compound: "CN(C)CC[C@@](C)(O)c1ccc2ccccc2c1"
  Assigned label: "condition not met"
- Compound: "COc1ccc2cc([C@](C)(O)CCN(C)C)ccc2c1"
  Assigned label: "condition met"
- Compound: "C[C@@H](CCN1CCCCC1)c1ccc(-c2ccccc2)cc1"
  Assigned label: "condition met"
- Compound: "COc1ccc2cc([C@@]3(O)CCN(C)[C@@H]3C)ccc2c1"
  Assigned label: "condition not met"
- Compound: "CC(CCN1CCCCC1)c1ccc(-c2ccccc2)cc1 (racemic)"
  Assigned label: "condition met"
- Compound: "COc1ccc2cc([C@@](C)(O)CCN(C)C)ccc2c1"
  Assigned label: "condition met"
- Compound: "C[C@@H]1N(C)CC[C@@]1(O)c1ccc2ccccc2c1"
  Assigned label: "condition met"
- Compound: "CC1N(C)CCC1(O)c1ccc2ccccc2c1 (racemic)"
  Assigned label: "condition met"
- Compound: "C[C@](O)(CCN1CCCCC1)c1ccc(-c2ccccc2)cc1"
  Assigned label: "condition met"
- Compound: "COc1ccc2cc(C(C)(O)CCN(C)C)ccc2c1 (racemic)"
  Assigned label: "condition met"

====

Protocol notes: Displacement of [3H]-DTG from sigma-2 receptor in Sprague-Dawley rat liver membranes after 120 mins by scintillation counting analysis
Assay type: cell membranes, Membrane
So basically every entry gets a class from its Ki, ranges being bin 0 = under 100 nM, bin 1 = from 100 nM up to 1000 nM, bin 2 = 1000 nM and over

- Compound: "CN(C)CC[C@](C)(O)c1ccc2ccccc2c1"
  Assigned label: "bin 0"
- Compound: "CN(C)CCC(C)(O)c1ccc2ccccc2c1 (racemic)"
  Assigned label: "bin 0"
- Compound: "C[C@@H]1N(C)CC[C@@]1(O)c1ccc2ccccc2c1"
  Assigned label: "bin 1"
- Compound: "C[C@@](O)(CCN1CCCCC1)c1ccc(-c2ccccc2)cc1"
  Assigned label: "bin 2"
- Compound: "COc1ccc2cc([C@@]3(O)CCN(C)[C@@H]3C)ccc2c1"
  Assigned label: "bin 2"
- Compound: "CC1N(C)CCC1(O)c1ccc2ccccc2c1 (racemic)"
  Assigned label: "bin 1"
- Compound: "C[C@](O)(CCN1CCCCC1)c1ccc(-c2ccccc2)cc1"
  Assigned label: "bin 2"
- Compound: "CC(O)(CCN1CCCCC1)c1ccc(-c2ccccc2)cc1 (racemic)"
  Assigned label: "bin 0"
- Compound: "COc1ccc2cc([C@@](C)(O)CCN(C)C)ccc2c1"
  Assigned label: "bin 2"
- Compound: "CN(C)CC[C@@](C)(O)c1ccc2ccccc2c1"
  Assigned label: "bin 1"
- Compound: "C[C@H](CCN1CCCCC1)c1ccc(-c2ccccc2)cc1"
  Assigned label: "bin 0"
- Compound: "C[C@H]1N(C)CC[C@]1(O)c1ccc2ccccc2c1"
  Assigned label: "bin 0"
- Compound: "COc1ccc2cc([C@]3(O)CCN(C)[C@H]3C)ccc2c1"
  Assigned label: "bin 2"
- Compound: "COc1ccc2cc(C3(O)CCN(C)C3C)ccc2c1 (stereo not drawn)"
  Assigned label: "bin 2"
- Compound: "COc1ccc2cc([C@](C)(O)CCN(C)C)ccc2c1"
  Assigned label: "bin 1"
